Biological target: Nitric oxide synthase (endothelial, human recombinant) eNOS (Homo sapiens, UniProt P29474)
Sequence (P29474 2-1203): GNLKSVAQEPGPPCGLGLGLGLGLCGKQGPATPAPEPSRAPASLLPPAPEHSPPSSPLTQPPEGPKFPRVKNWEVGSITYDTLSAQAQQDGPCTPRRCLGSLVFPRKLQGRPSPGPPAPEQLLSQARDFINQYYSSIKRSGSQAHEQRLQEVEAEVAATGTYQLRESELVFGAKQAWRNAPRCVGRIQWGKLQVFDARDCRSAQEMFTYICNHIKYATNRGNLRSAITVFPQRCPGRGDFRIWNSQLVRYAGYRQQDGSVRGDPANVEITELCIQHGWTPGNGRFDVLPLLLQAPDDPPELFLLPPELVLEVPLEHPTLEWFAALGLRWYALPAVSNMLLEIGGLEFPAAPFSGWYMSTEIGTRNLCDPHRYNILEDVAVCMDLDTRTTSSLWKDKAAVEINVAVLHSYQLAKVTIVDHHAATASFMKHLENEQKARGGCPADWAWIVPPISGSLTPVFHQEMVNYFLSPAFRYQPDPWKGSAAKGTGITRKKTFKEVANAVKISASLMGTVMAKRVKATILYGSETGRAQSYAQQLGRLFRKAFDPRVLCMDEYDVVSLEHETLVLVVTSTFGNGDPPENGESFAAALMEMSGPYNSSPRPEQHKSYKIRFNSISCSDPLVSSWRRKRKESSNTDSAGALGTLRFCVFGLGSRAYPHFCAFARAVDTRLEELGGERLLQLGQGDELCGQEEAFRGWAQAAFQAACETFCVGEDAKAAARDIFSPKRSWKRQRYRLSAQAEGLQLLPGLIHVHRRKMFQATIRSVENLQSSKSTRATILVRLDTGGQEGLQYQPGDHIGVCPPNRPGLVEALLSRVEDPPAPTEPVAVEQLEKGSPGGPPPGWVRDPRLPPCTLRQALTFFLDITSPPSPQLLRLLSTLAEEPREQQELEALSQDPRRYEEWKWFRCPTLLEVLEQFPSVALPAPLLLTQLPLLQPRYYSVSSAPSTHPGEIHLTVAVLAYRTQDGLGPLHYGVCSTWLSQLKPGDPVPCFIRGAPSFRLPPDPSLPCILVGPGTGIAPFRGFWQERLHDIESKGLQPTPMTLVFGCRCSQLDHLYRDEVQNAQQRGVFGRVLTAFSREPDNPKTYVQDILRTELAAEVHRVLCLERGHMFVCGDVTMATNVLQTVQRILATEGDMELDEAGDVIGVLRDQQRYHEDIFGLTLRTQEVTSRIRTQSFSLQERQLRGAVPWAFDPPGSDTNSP
Assay: Human eNOS enzyme assay ([3H]L-arginine to [3H]L-citrulline)
Format: biochemical
Conditions: heNOS IC50
IC50 overview

compound	IC50, µM
CC1C(=O)N(C2CCN(C)CC2)c2ccc(NC(=N)c3cccs3)cc21 (stereo not drawn)	155
CN1CCC(N2CCCc3cc(NC(=N)c4cccs4)ccc32)CC1	50
CN1CCC(N2C(=O)CCc3cc(NC(=N)c4cccs4)ccc32)CC1	151

* * *

The compounds below have reported log10(IC50) for iNOS (Mouse) (Mus musculus, UniProt P29477).
Counter-ions that a name gives are not always drawn.
observationType: log10(IC50) (log10 of the value in µM)

compound	log10(IC50)
Cl.Cl.N=C(Nc1ccc2c(c1)CCN2C1CCNCC1)c1cccs1 [Example 54, dihydrochloride]	0.88
N=C(Nc1ccc2c(c1)CCCN2C1CCNC1)c1cccs1 (single isomer, unassigned; (+)) [Example 66, dihydrochloride]	0.46
N=C(Nc1ccc2c(c1)CCC(=O)N2CCN1CCCCC1)c1cccs1 [Example 1]	0.93
CC(C)NCCN1CCCc2cc(NC(=N)c3cccs3)ccc21 [Example 61]	0.90
CN(CCO)CCN1CCCc2cc(NC(=N)c3cccs3)ccc21 [Example 62]	0.85
N=C(Nc1ccc2c(c1)CCCN2C1CCNCC1)c1cccs1 [Example 47]	-0.47

* * *

Target: Nitric oxide synthase (neuronal, human recombinant) nNOS (Homo sapiens, UniProt P29475)
Sequence (P29475 whole entry): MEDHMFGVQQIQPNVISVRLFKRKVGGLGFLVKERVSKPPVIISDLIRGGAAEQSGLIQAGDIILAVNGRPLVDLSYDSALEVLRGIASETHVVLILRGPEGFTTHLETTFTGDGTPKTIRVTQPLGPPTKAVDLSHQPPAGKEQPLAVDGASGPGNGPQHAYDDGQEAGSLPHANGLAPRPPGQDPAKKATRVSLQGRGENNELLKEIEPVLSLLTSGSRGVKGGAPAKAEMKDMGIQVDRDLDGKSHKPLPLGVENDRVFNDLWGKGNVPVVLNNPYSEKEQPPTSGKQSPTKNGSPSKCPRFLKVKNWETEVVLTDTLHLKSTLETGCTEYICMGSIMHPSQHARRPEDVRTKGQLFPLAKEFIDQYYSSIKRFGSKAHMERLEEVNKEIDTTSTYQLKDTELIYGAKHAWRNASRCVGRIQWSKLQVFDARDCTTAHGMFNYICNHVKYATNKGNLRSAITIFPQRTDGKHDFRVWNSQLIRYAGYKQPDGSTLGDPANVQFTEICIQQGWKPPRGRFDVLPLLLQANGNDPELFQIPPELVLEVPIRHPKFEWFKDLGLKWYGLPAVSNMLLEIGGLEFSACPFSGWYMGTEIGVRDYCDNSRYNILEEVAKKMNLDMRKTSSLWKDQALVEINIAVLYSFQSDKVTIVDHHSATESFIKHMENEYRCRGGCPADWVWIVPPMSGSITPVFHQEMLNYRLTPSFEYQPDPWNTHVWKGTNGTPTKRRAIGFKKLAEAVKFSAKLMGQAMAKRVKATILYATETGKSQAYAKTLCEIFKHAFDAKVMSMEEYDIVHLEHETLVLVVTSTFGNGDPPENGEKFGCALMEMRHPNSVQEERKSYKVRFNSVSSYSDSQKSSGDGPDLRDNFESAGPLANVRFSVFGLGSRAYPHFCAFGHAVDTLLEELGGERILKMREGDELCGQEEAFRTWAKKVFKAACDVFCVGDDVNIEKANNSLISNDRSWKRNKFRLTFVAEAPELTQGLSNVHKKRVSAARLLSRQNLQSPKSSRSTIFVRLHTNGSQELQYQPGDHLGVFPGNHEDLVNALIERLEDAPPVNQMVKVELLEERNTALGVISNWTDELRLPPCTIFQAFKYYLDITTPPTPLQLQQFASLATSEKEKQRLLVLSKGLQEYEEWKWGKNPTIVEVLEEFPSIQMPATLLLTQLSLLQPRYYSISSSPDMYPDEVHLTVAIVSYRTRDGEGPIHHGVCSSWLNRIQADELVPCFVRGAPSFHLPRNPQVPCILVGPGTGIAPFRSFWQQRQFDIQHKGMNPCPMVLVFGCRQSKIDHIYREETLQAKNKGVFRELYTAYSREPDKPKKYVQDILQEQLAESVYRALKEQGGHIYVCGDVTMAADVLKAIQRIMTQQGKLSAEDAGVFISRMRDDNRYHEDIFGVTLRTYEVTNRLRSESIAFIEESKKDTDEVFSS
Assay: Human nNOS enzyme assay ([3H]L-arginine to [3H]L-citrulline)
Format: biochemical

molecule	Selectivity eNOS/nNOS
CN1CCC(N2C(=O)CCc3cc(NC(=N)c4cccs4)ccc32)CC1 [Example 22]	87.8
CN1CCC(N2CCCc3cc(NC(=N)c4cccs4)ccc32)CC1 [Example 18]	5.7
CCN(C)CCN1CCCc2cc(NC(=N)c3cccs3)ccc21 [Example 51]	370
CC1C(=O)N(C2CCN(C)CC2)c2ccc(NC(=N)c3cccs3)cc21 (stereo not drawn) [Example 17]	31
N=C(Nc1ccc2c(c1)CCC(=O)N2CCCN1CCOCC1)c1cccs1 [Example 5]	19.2
CCN(CC)CCCN1C(=O)CCc2cc(NC(=N)c3cccs3)ccc21 [Example 7]	16

* * *

Molecular target: Nitric oxide synthase (neuronal, human recombinant) nNOS (Homo sapiens, UniProt P29475)
Experiment: Human nNOS enzyme assay ([3H]L-arginine to [3H]L-citrulline)
Type: biochemical
Conditions: human enzymes; ratio of eNOS IC50 to nNOS IC50
Label scheme for Selectivity eNOS/nNOS: lower than 100 is Condition not met, 100 and above is Condition met.

compound	targetSystem	classification
CNCCN1CCCc2ccc(NC(=N)c3cccs3)cc21	Nitric oxide synthase (neuronal, human recombinant) nNOS (Homo sapiens, UniProt P29475)	Condition met
CN1CCC(N2CCCc3cc(NC(=N)c4cccs4)ccc32)C1 (single isomer, unassigned) [Example 57]	Nitric oxide synthase (neuronal, human recombinant) nNOS (Homo sapiens, UniProt P29475)	Condition met
CN1CCC(N2CCc3cc(NC(=N)c4cccs4)ccc32)CC1	Nitric oxide synthase (neuronal, human recombinant) nNOS (Homo sapiens, UniProt P29475)	Condition not met
N=C(Nc1ccc2c(c1)C(C1CCNC1)C(=O)N2)c1cccs1 (stereo not drawn)	Nitric oxide synthase (neuronal, human recombinant) nNOS (Homo sapiens, UniProt P29475)	Condition met
CN1CCCC1CCN1CCCc2cc(NC(=N)c3cccs3)ccc21 (stereo not drawn) [Example 14]	Nitric oxide synthase (neuronal, human recombinant) nNOS (Homo sapiens, UniProt P29475)	Condition met
CC(CN1CCCc2cc(NC(=N)c3cccs3)ccc21)N1CCCC1 (stereo not drawn)	Nitric oxide synthase (neuronal, human recombinant) nNOS (Homo sapiens, UniProt P29475)	Condition not met

* * *

Biological target: nNOS (Rat) (Rattus norvegicus, UniProt P29476)
Experiment: nNOS (Rat) enzyme assay
Format: biochemical
Settings: rodent enzymes; values in parentheses
observationType: Selectivity eNOS/nNOS (rodent data in parentheses)

compound	targetSystem	value
CN1CCCC1CCN1CCCc2cc(NC(=N)c3cccs3)ccc21 (stereo not drawn) [Example 14]	nNOS (Rat) (Rattus norvegicus, UniProt P29476)	(206)
CC(C)NCCN1CCCc2cc(NC(=N)c3cccs3)ccc21 [Example 61]	nNOS (Rat) (Rattus norvegicus, UniProt P29476)	(5.6)
CN1CCCC1CCN1CCCc2cc(NC(=N)c3cccs3)ccc21 (single isomer, unassigned) [Example 24]	nNOS (Rat) (Rattus norvegicus, UniProt P29476)	(183)
N=C(Nc1ccc2c(c1)CCCCN2CCN1CCCC1)c1cccs1 [Example 27]	nNOS (Rat) (Rattus norvegicus, UniProt P29476)	(523)

* * *

Each entry below carries its recorded pIC50.
Target: Recombinant human inducible NOS (iNOS) (Homo sapiens, UniProt P35228)
Sequence (P35228 whole entry): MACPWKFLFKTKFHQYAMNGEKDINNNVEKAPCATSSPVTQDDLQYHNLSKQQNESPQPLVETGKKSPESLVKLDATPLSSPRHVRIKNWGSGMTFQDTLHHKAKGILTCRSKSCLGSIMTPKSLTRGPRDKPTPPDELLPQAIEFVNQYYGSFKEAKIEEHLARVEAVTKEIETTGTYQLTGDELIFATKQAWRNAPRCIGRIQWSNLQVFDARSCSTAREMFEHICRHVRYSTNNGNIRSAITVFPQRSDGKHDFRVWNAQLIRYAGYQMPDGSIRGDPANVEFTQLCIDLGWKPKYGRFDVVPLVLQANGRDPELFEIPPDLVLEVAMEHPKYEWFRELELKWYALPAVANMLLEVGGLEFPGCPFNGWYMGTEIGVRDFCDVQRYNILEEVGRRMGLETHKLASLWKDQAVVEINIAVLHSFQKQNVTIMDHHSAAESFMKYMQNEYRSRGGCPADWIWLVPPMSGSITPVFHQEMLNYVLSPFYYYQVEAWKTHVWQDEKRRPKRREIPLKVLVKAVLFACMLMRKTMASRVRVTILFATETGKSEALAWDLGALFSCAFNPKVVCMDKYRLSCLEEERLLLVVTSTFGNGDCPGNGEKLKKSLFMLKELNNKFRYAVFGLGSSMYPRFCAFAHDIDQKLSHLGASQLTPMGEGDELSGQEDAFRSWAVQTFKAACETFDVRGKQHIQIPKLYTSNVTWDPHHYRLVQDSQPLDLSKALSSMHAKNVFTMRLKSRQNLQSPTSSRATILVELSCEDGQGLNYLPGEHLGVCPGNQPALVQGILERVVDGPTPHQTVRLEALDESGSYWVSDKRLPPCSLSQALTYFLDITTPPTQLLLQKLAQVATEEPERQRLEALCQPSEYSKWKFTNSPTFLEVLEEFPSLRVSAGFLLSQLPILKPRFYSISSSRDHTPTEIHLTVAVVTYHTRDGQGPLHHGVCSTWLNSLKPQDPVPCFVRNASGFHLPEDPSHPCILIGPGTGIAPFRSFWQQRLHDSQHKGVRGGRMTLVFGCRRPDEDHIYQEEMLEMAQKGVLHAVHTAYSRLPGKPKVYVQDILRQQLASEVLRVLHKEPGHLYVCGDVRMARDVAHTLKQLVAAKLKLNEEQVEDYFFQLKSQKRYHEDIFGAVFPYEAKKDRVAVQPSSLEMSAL
Assay: Human iNOS enzyme assay, radiometric
Assay type: biochemical
Details: read-out: hiNOS IC50
pIC50: −log10 of the molar value.
observationType: pIC50

compound	targetSystem	value
CN(C)CCN1C(=O)CCc2cc(NC(=N)c3cccs3)ccc21	Recombinant human inducible NOS (iNOS) (Homo sapiens, UniProt P35228)	4.49
CN1CCC(N2CCCCc3cc(NC(=N)c4cccs4)ccc32)CC1	Recombinant human inducible NOS (iNOS) (Homo sapiens, UniProt P35228)	5.87
N=C(Nc1ccc2c(c1)CCCCN2CCN1CCCC1)c1cccs1	Recombinant human inducible NOS (iNOS) (Homo sapiens, UniProt P35228)	4.26
CC(C)NCCN1CCCc2cc(NC(=N)c3cccs3)ccc21	Recombinant human inducible NOS (iNOS) (Homo sapiens, UniProt P35228)	5.54
CN1CCCC1CCN1CCCc2cc(NC(=N)c3cccs3)ccc21 (single isomer, unassigned) [Example 24]	Recombinant human inducible NOS (iNOS) (Homo sapiens, UniProt P35228)	4.48

* * *

Biological target: Nitric oxide synthase (endothelial, human recombinant) eNOS (Homo sapiens)
Experiment: Human eNOS enzyme assay ([3H]L-arginine to [3H]L-citrulline)
Format: biochemical
Details: human recombinant eNOS; values without parentheses; read-out: heNOS IC50
Returns the class for an entry based on its IC50. Class ranges: zone 1 (below 20 µM), zone 2 (20 µM to below 30 µM), zone 3 (30 µM or more)

compound	targetSystem	classification
CNC1CCC(N2CCc3cc(NC(=N)c4cccs4)ccc32)CC1 (stereo not drawn) [Example 71]	Nitric oxide synthase (endothelial, human recombinant) eNOS (Homo sapiens)	zone 3
CN1CCC(N2CCc3cc(NC(=N)c4cccs4)ccc32)C1 (stereo not drawn) [Example 50]	Nitric oxide synthase (endothelial, human recombinant) eNOS (Homo sapiens)	zone 2
N=C(Nc1ccc2c(c1)CCN2C1CCNC1)c1cccs1 (stereo not drawn) [Example 49]	Nitric oxide synthase (endothelial, human recombinant) eNOS (Homo sapiens)	zone 1
CCNCCN1CCCc2cc(NC(=N)c3cccs3)ccc21 [Example 60]	Nitric oxide synthase (endothelial, human recombinant) eNOS (Homo sapiens)	zone 3
Cl.Cl.N=C(Nc1ccc2c(c1)CCN2C1CCNCC1)c1cccs1 [Example 54, dihydrochloride]	Nitric oxide synthase (endothelial, human recombinant) eNOS (Homo sapiens)	zone 3
CNCCN1CCCc2cc(NC(=N)c3cccs3)cc(F)c21.Cl.Cl [Example 52, dihydrochloride]	Nitric oxide synthase (endothelial, human recombinant) eNOS (Homo sapiens)	zone 1
CN(CCO)CCCN1CCCc2cc(NC(=N)c3cccs3)ccc21 [Example 69]	Nitric oxide synthase (endothelial, human recombinant) eNOS (Homo sapiens)	zone 3
CN1CCCC1CCN1CCCc2cc(NC(=N)c3cccs3)ccc21 (single isomer, unassigned) [Example 24]	Nitric oxide synthase (endothelial, human recombinant) eNOS (Homo sapiens)	zone 1
CC(CN1CCCc2cc(NC(=N)c3cccs3)ccc21)N1CCCC1 (stereo not drawn) [Example 16]	Nitric oxide synthase (endothelial, human recombinant) eNOS (Homo sapiens)	zone 3
CCN(CC)CCCN1C(=O)CCc2cc(NC(=N)c3cccs3)ccc21 [Example 7]	Nitric oxide synthase (endothelial, human recombinant) eNOS (Homo sapiens)	zone 1
N=C(Nc1ccc2c(c1)CCN2CCN1CCCC1)c1cccs1 [Example 67]	Nitric oxide synthase (endothelial, human recombinant) eNOS (Homo sapiens)	zone 2
N=C(Nc1ccc2c(c1)CCCN2CCN1CCOCC1)c1cccs1 [Example 64]	Nitric oxide synthase (endothelial, human recombinant) eNOS (Homo sapiens)	zone 3
CN1CCC(C2C(=O)Nc3ccc(NC(=N)c4cccs4)cc32)CC1 (stereo not drawn) [Example 31]	Nitric oxide synthase (endothelial, human recombinant) eNOS (Homo sapiens)	zone 2
CN1CCCC1CCN1CCCc2cc(NC(=N)c3cccs3)cc(F)c21.Cl.Cl (stereo not drawn) [Example 55, dihydrochloride]	Nitric oxide synthase (endothelial, human recombinant) eNOS (Homo sapiens)	zone 1

* * *

// each record: one item and its log10 IC50 for eNOS (Rat) (Rattus norvegicus)
Where a name gives a salt, the structure may show the parent alone.
observationType: log10 IC50 (log10 of the value in µM)

compound	log10 IC50
CC(C)NCCN1CCCc2cc(NC(=N)c3cccs3)ccc21	0.79
CN1CCC(N2CCCc3cc(NC(=N)c4cccs4)ccc32)C1 (single isomer, unassigned)	0.65
CN1CCCC1CCN1CCCc2cc(NC(=N)c3cccs3)ccc21 (single isomer, unassigned) [Example 24]	1.34
N=C(Nc1ccc2c(c1)CCC(=O)N2CCN1CCCCC1)c1cccs1	1.72
CN(C)CCN1CCCCc2cc(NC(=N)c3cccs3)ccc21.Cl.Cl [Example 28, dihydrochloride]	1.80
CNCCN1CCCc2ccc(NC(=N)c3cccs3)cc21	-0.20
CN(C)CCN1C(=O)CCc2cc(NC(=N)c3cccs3)ccc21	1.81
N=C(Nc1ccc2c(c1)CCCCN2CCN1CCCC1)c1cccs1	1.62
CN1CCCC1CCN1CCCc2cc(NC(=N)c3cccs3)ccc21 (stereo not shown) [Example 14]	1.54
Cl.Cl.N=C(Nc1ccc2c(c1)CCN2C1CCNCC1)c1cccs1 [Example 54, dihydrochloride]	1.08
N=C(Nc1ccc2c(c1)CCCN2C1CCNC1)c1cccs1 (single isomer, unassigned; (-)) [Example 65, dihydrochloride]	0.96
